measured-on: 5-HT7 (h) (Homo sapiens)
Construct: host or cells: HEK-293 cells
Sequence (P34969 whole entry): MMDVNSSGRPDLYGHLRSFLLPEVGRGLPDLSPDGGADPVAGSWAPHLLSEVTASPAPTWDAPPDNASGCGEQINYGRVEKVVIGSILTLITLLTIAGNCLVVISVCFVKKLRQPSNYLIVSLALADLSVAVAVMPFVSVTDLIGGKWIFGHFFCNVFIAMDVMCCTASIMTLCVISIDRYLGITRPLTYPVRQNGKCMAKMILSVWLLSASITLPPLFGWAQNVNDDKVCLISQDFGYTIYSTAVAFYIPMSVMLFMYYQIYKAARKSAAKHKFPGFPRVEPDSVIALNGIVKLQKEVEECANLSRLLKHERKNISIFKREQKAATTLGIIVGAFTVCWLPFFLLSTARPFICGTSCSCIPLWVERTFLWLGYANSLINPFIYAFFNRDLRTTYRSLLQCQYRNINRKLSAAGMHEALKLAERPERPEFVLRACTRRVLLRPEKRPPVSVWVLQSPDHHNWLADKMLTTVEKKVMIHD
test-details: Competition assay to measure binding affinity at 5-HT7 receptor
measurement-context: test ligand 10 μM; [3H]LSD 4 nM
// classify: if (HT7, percent of control-specific binding < 30%) condition met else condition not met

{"columns": ["compound", "answer-label"],
 "data": [
  ["COc1cc2c(cc1CC(=O)NCCO)OCO2 [A(XXII)]", "condition met"],
  ["CCOc1c(OC)cc(CCN)cc1OC [escaline]", "condition met"],
  ["COc1cc2c(cc1CC(=O)N1CCCC1)OCO2 [A(XXI)]", "condition met"],
  ["O=C(Cc1cc2c(cc1Br)OCO2)NCCO [A(XIX)]", "condition met"],
  ["COc1cc2c(cc1CNC(C)Cc1ccc3c(c1)OCCO3)OCO2 (stereo not drawn) [A(X)]", "condition not met"],
  ["CC(Cc1ccc2c(c1)OCCO2)NCc1ccccc1 (stereo not drawn) [A(XXIII)]", "condition not met"]
]}

---

measured-on: human serotonin transporter (SERT) (Homo sapiens)
Construct: purchased PerkinElmer RBHSTM400UA
Sequence (P31645 whole entry): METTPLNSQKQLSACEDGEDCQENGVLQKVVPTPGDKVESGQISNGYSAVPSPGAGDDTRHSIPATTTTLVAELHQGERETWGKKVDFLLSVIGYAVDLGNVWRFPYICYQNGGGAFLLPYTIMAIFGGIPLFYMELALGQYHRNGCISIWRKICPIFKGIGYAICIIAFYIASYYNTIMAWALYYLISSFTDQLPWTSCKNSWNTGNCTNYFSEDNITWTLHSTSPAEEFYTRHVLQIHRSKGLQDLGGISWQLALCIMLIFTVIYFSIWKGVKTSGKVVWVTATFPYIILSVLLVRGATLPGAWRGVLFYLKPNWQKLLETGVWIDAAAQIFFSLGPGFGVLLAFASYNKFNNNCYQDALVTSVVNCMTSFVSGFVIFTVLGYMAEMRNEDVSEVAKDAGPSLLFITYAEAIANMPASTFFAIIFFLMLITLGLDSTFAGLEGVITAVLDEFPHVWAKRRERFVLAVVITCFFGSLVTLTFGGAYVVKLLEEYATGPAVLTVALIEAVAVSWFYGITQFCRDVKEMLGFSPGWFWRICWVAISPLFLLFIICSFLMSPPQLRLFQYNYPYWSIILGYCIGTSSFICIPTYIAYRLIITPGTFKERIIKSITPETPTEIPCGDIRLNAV
test-details: biochemical
Assay type: binding
pKi: −log10 of the molar value.
fulfilled means recorded pKi is 4 or above; not fulfilled means it is below 4.

{"columns": ["molecule", "answer-label"],
 "data": [
  ["CC(Cc1ccc2c(c1)OCO2)NC1CCC1 (stereo not drawn) [A(I)]", "fulfilled"],
  ["N[C@@H](Cc1c[nH]c2ccccc12)C(=O)O [tryptophan, reference compound]", "not fulfilled"],
  ["CC(Cc1ccc2c(c1)OCCO2)NCc1ccc2c(c1)OCCO2 (stereo not drawn) [A(XIII)]", "fulfilled"],
  ["CC(Cc1ccc2c(c1)OCO2)NCc1cc2c(cc1Br)OCO2 (stereo not drawn) [A(VI)]", "fulfilled"],
  ["COc1cc2c(cc1CC(=O)NCCO)OCO2 [A(XXII)]", "fulfilled"],
  ["Brc1cc2c(cc1CCN1CCCC1)OCO2 [A(XXV)]", "fulfilled"],
  ["CCCOc1c(OC)cc(CCN)cc1OC [proscaline, reference compound]", "not fulfilled"],
  ["COc1cc2c(cc1CNC(C)Cc1ccc3c(c1)OCO3)OCO2 (stereo not drawn) [A(V)]", "fulfilled"],
  ["COc1cc(CCN)cc(OC)c1OC [mescaline, 3,4,5 trimethoxyphenethylamine]", "not fulfilled"],
  ["COc1cc2c(cc1CNC(C)Cc1ccc3c(c1)OCCO3)OCO2 (stereo not drawn) [A(X)]", "fulfilled"],
  ["N#CC(Cc1ccc2c(c1)OCO2)NC1CCC1 (stereo not drawn) [A(XX)]", "not fulfilled"],
  ["CC(Cc1ccc2c(c1)OCCO2)NCc1cc2c(cc1Br)OCO2 (stereo not drawn) [A(IX)]", "fulfilled"]
]}

---

measured-on: 5-HT2A receptor (Homo sapiens, UniProt P28223)
Sequence (P28223 whole entry): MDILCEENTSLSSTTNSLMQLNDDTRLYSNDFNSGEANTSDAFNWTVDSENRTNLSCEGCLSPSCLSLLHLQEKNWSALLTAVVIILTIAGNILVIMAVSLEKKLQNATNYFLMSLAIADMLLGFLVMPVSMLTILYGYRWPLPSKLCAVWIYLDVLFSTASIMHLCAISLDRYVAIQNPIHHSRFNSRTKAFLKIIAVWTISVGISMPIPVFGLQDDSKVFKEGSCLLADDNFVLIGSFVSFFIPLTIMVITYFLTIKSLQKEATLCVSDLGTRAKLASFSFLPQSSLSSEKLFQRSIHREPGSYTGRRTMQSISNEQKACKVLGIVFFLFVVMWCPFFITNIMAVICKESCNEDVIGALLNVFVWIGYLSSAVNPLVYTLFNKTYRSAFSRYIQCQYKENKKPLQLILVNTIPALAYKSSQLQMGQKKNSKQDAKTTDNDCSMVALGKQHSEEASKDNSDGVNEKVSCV
test-details: 5-HT2A receptor radioligand competition assay (SPA)
// classify: if (Ki < 30 µM) t else f

{"columns": ["molecule", "answer-label"],
 "data": [
  ["FC1(F)Oc2ccc(CCN3CCCC3)cc2O1", "t"],
  ["COc1cc2c(cc1CCNCCO)OCO2", "t"],
  ["COc1cc2c(cc1CNC(C)Cc1ccc3c(c1)OCCO3)OCO2 (stereo not shown)", "t"],
  ["CC(Cc1ccc2c(c1)OCO2)N(C)CCc1c[nH]c2ccccc12 (stereo not shown)", "t"],
  ["CC(Cc1ccc2c(c1)OCO2)N1CCC1 (stereo not shown)", "t"],
  ["CC(Cc1ccc2c(c1)OCCO2)NCc1ccccc1 (stereo not shown)", "f"],
  ["CC(Cc1ccc2c(c1)OCCO2)NCc1ccc2c(c1)OCO2 (stereo not shown)", "t"],
  ["CC(Cc1ccc2c(c1)OCCO2)NC1CCC1 (stereo not shown)", "f"],
  ["CC(C)(C)OC(=O)NC1CN(CCc2ccc3c(c2)OCO3)C1", "f"],
  ["c1cc(CCN2CCCC2)c2c(c1)OCO2", "t"],
  ["O=C(Cc1cc2c(cc1Br)OCO2)NCCO", "t"],
  ["CC(Cc1ccc2c(c1)OCCO2)NCc1cc2c(cc1Br)OCO2 (stereo not shown)", "t"],
  ["COc1cc2c(cc1CNC(C)Cc1ccc3c(c1)OCO3)OCO2 (stereo not shown)", "t"],
  ["CC(Cc1ccc2c(c1)OCO2)N1CCOCC1 (stereo not shown)", "f"],
  ["CC(Cc1ccc2c(c1)OCCO2)N1CC(NC(=O)OC(C)(C)C)C1 (stereo not shown)", "f"],
  ["CC(Cc1ccc2c(c1)OCO2)NCc1cc2c(cc1Br)OCO2 (stereo not shown)", "t"]
]}
